For each entry below, report its pest or weed control at 200 ppm value.
- Tested on: Blumeria graminis f. sp. tritici (Erysiphe graminis f. sp. tritici)
- experiment notes: Blumeria graminis f. sp. tritici / wheat / leaf disc preventative (powdery mildew on wheat)
- Type: in vivo
- test context: foliar, wheat leaf segments cv. Kanzler, inoculated 1 day after application, assessed 6-8 days after application, vs untreated control

## Input Find the measured pest or weed control at 200 ppm: item COc1ncc(NCC2CC2)nc1C(=O)NC1CCC1(C)C (stereo not shown) [Compound P-9] , target or system Blumeria graminis f. sp. tritici (Erysiphe graminis f. sp. tritici).
## Output ≥ 80%

## Input Can you handle COc1ncc(Nc2cc(F)cc(F)c2)nc1C(=O)NCC1(C)CCOC1 (stereo not shown) [Compound P-21] next?
## Output ≥ 80%

## Input Can you handle COc1ncc(NCC(C)(C)O)nc1C(=O)NC1CCC1(C)C (stereo not shown) [Compound P-8] next?
## Output ≥ 80%

## Input Can you handle COc1ncc(Nc2ccccc2)nc1C(=O)NC1CCC1(C)C (stereo not shown) [Compound P-4] next?
## Output ≥ 80%

## Input Can you handle COc1ncc(Nc2cccc(F)c2)nc1C(=O)NC1CCC1(C)C (stereo not shown) [Compound P-5] next?
## Output ≥ 80%

## Input Can you handle COc1ncc(Nc2cc(F)cc(F)c2)nc1C(=O)NCC1(C(F)(F)F)CC1 [Compound P-25] next?
## Output ≥ 80%

## Input Can you handle COc1ncc(Nc2cc(F)cc(F)c2)nc1C(=O)NC1(C)CC1 [Compound P-37] next?
## Output ≥ 80%

## Input Can you handle COc1ncc(Nc2cc(F)cc(F)c2)nc1C(=O)NCc1ccc(Oc2ccccc2)cc1 [Compound P-30] next?
## Output ≥ 80%

## Input Can you handle COc1ncc(Nc2cc(F)cc(F)c2)nc1C(=O)NC1CCC1(C)C (stereo not shown) [Compound P-43] next?
## Output ≥ 80%

## Input Can you handle COc1ncc(Nc2cc(F)nc(F)c2)nc1C(=O)NCC1(C(F)(F)F)CC1 [Compound P-35] next?
## Output ≥ 80%

## Input Can you handle COc1ncc(Nc2cc(F)cc(F)c2)nc1C(=O)NC1COC2(CC2)C1 (stereo not shown) [Compound P-20] next?
## Output ≥ 80%

## Input Can you handle COc1ncc(Nc2cc(F)cc(F)c2)nc1C(=O)NC1C2CCOC2C1(C)C (stereo not shown) [Compound P-16] next?
## Output ≥ 80%

## Input Can you handle COc1ncc(Nc2cc(F)cc(F)c2)nc1C(=O)NC1COC(C2CC2)C1 (stereo not shown) [Compound P-24] next?
## Output ≥ 80%

## Input Can you handle COc1ncc(Nc2cc(F)cc(F)c2)nc1C(=O)NC(C)(C)C [Compound P-38] next?
## Output ≥ 80%

## Input Can you handle COc1ncc(Nc2cc(F)cc(F)c2)nc1C(=O)NCC1(C)CCOC2(CCC2)C1 (stereo not shown) [Compound P-22] next?
## Output ≥ 80%

## Input Can you handle COc1ncc(Nc2cc(F)cc(F)c2)nc1C(=O)NCC(C)(C)C [Compound P-39] next?
## Output ≥ 80%

## Input Can you handle COc1ncc(Nc2cc(F)cc(F)c2)nc1C(=O)NC(C)CCCC(C)C (stereo not shown) [Compound P-40] next?
## Output ≥ 80%

## Input Can you handle Cc1ncc(Nc2cc(F)nc(F)c2)nc1C(=O)NC1CCC1(C)C (stereo not shown) [Compound P-50] next?
## Output ≥ 80%

## Input Can you handle COc1ncc(Nc2cc(F)cc(F)c2)nc1C(=O)NC1CC2CCOC21 (stereo not shown) [Compound P-28] next?
## Output ≥ 80%
